Organism: Rattus norvegicus
PROCEDURE TEXT: Open TG-GATES - Regimen: Daily Repeat
Format: toxicity, organism-based, Sprague-Dawley
Set-up: regimen Daily Repeat, gender Male, age 6 weeks
EXPERIMENTAL SETUP: in vivo, po, 1000 mg/kg, […], tissue Blood, route gavage, dose level High, time 14 day
ENDPOINT: WBC (x10_2/uL)
Give bare numbers, in x10_2/uL.

Report WBC for every entry below.
1. CCOc1ccc(NC(=O)CC(C)O)cc1 (stereo unspecified)
2. COC1=CC(=O)C[C@@H](C)[C@]12Oc1c(Cl)c(OC)cc(OC)c1C2=O

Output:
1. 123.6
2. 112.6

Report WBC for every entry below.
1. CC(C)OC(=O)C(C)(C)Oc1ccc(C(=O)c2ccc(Cl)cc2)cc1 [FENOFIBRATE]
2. NC(N)=Nc1nc(CSCCC(N)=NS(N)(=O)=O)cs1
3. COc1ccc2[nH]c([S+]([O-])Cc3ncc(C)c(OC)c3C)nc2c1 (stereo unspecified)
4. CCOC(=O)CCC(=O)O[C@H]1[C@H](O[C@@H]2[C@@H](C)[C@H](O[C@H]3C[C@@](C)(OC)[C@@H](O)[C@H](C)O3)[C@@H](C)C(=O)O[C@H](CC)[C@@](C)(O)[C@H](O)[C@@H](C)C(=O)[C@H](C)C[C@@]2(C)O)O[C@H](C)C[C@@H]1N(C)C [ERYTHROMYCIN ETHYLSUCCINATE]

Output:
[149.7, 111.7, 131, 91.9]

###

Organism: Rattus norvegicus
PROCEDURE TEXT: Open TG-GATES - Regimen: Daily Repeat
Assay type: toxicity, organism-based, Sprague-Dawley
Design: regimen Daily Repeat, gender Male, age 6 weeks
EXPERIMENTAL SETUP: in vivo, po, 10 mg/kg, 72 h, tissue Blood, route gavage, dose level Low, time 3 day
ENDPOINT: Plat (x10_4/uL)
Give bare numbers, in x10_4/uL.

Report Plat for every entry below.
1. CC1=C(/C=C/C(C)=C/C=C/C(C)=C/CO)C(C)(C)CCC1
2. CC(C)OC(=O)C(C)(C)Oc1ccc(C(=O)c2ccc(Cl)cc2)cc1 [FENOFIBRATE]

Output:
1: 123.7; 2: 113.1

Report Plat for every entry below.
1. CN(C)CCN(Cc1cccs1)c1ccccn1
2. CN(C)CCCN1c2ccccc2CCc2ccccc21

Output:
1. 116.7
2. 115.2

###

Organism: Rattus norvegicus
PROCEDURE TEXT: Open TG-GATES - Regimen: Single
Assay type: toxicity, organism-based, Sprague-Dawley
Set-up: regimen Single, gender Male, age 6 weeks
EXPERIMENTAL SETUP: in vivo, po, 0 mg/kg, 6 h, tissue Plasma, route gavage, dose level Control
ENDPOINT: GLC (mg/dL)
Answers are plain numbers, in mg/dL.

Reference set, count: 3
# COMPOUND, UNIT DESCRIPTOR, RECORDED MEASUREMENT
rows = [
    ("COC1=CC(=O)C[C@@H](C)[C@]12Oc1c(Cl)c(OC)cc(OC)c1C2=O", "mg/dL", 209.6),
    ("CN(C)CCN(Cc1cccs1)c1ccccn1", "mg/dL", 174.2),
    ("CN(C)CCCN1c2ccccc2CCc2ccc(Cl)cc21", "mg/dL", 178.2),
]

--- query ---
What the record says about CCOC(=O)CCC(=O)O[C@H]1[C@H](O[C@@H]2[C@@H](C)[C@H](O[C@H]3C[C@@](C)(OC)[C@@H](O)[C@H](C)O3)[C@@H](C)C(=O)O[C@H](CC)[C@@](C)(O)[C@H](O)[C@@H](C)C(=O)[C@H](C)C[C@@]2(C)O)O[C@H](C)C[C@@H]1N(C)C [ERYTHROMYCIN ETHYLSUCCINATE] : GLC is 190.6
